Reference source: the supplement of paper PMC11451515

System: NOMO1
run_description: cell viability relative to DMSO control; higher = less cytotoxic
condition_context: HPLM + 10% dialyzed FBS; 48 h; 5.12 µM
metric_name: cell viability

Check out these entries, answers already filled in.
Bench note: what cell viability did `COc1ccc([C@@H]2CC(=O)c3c(O)cc(O[C@@H]4O[C@H](CO[C@@H]5O[C@@H](C)[C@H](O)[C@@H](O)[C@H]5O)[C@@H](O)[C@H](O)[C@H]4O)cc3O2)cc1O` show?
117%

Which cell viability value is on record for `Oc1cccc(-c2nc(N3CCOCC3)c3oc4ncccc4c3n2)c1` ?
129%

// cell viability lookup, key: `CC(C)C[C@H](NC(=O)CNC(=O)c1cc(Cl)ccc1Cl)B(O)O`
4.5%

For the next question, use this compound.
Data request, read-out cell viability, for `CC(C)c1cc(C(=O)N2Cc3ccc(CN4CCN(C)CC4)cc3C2)c(O)cc1O`
20.3%

====

Test system: P12-Ichikawa
run_description: cell viability relative to DMSO control; higher = less cytotoxic
condition_context: RPMI 5 mM glucose + 10% dialyzed FBS; 48 h; 5.12 µM
metric_name: cell viability (%)
Note: unit % is implicit; provide only the numeric part.

# count of solved cases: 10
Consider the compound `Cc1cc(C(=O)N2CCN(c3cccc(Cl)c3)CC2)n(-c2ccccc2)n1` and give its measured cell viability.
40.9

Any idea what cell viability was measured for `CO/C1=C/C(C)=C\[C@@H](C)[C@@H](O)[C@@H](C)C/C(C)=C\C=C/[C@H](OC)[C@@H]([C@@H](C)[C@@H](O)[C@H](C)[C@@]2(O)C[C@@H](O)[C@H](C)[C@@H](C(C)C)O2)OC1=O` ?
19.4

Field request: cell viability | item: COc1ccc2[nH]c([S+]([O-])Cc3ncc(C)c(OC)c3C)nc2c1 (stereo unspecified)
70.6

State the recorded cell viability for this entry: CN1CCCC(CC1)N2\N=C(CC3=CC=C(Cl)C=C3)/C4=C(C=CC=C4)C2=O (stereo unspecified)
118

Entry `Cc1cnc(C(=O)O)c[n+]1[O-]` : reported cell viability = ?
115

Requested read-out: cell viability. Entry: `Oc1cccc(-c2nc(N3CCOCC3)c3oc4ncccc4c3n2)c1`
114

What does the data say about its cell viability? Entry: `CN1C(=O)C[C@H](C(=O)N[C@@H](Cc2cnc[nH]2)C(=O)N2CCC[C@H]2C(N)=O)NC1=O`
119

Please give the measured cell viability for this compound: `NCCCCNCCCN`
115

I have this compound here, `Cc1csc(NC(=O)c2sc3nc4c(c(C(F)(F)F)c3c2N)CCC4)n1` , and I need its recorded cell viability.
84.9

Entry `Nc1cccc2c1CN([C@H]1CCC(=O)NC1=O)C2=O` has what cell viability?
94.8

Okay, now this compound:
Given the entry `CC[C@@]1(O)C(=O)OCC/2=C1/C=C3\N(CC4=CC5=CC(=CC=C5N=C34)O)C2=O` , report its measured cell viability.
6.88

====

In this section, each of the compounds is paired with its reported cell viability.
Test system: SEM cells
run_description: cell viability relative to DMSO control; higher = less cytotoxic
condition_context: RPMI 5 mM glucose + 10% dialyzed FBS; 48 h; 1.71 µM
Unit % implied. Number only.

Requested field: cell viability. Item: `C[C@]12CC[C@@H]3c4ccc(O)cc4CC[C@H]3[C@@H]1C[C@@H](O)[C@@H]2O`
106

More entries:
I'd like to know its cell viability. The compound in question is `ClC1=CC\2=C(OC3=C(C=CC=C3)\N=C2N4CCNCC4)C=C1`
107

Which cell viability is listed for `Cc1cc(Nc2cc(CN3CCOCC3)c3nc(C)c(Cc4ccc(Cl)cc4F)n3n2)[nH]n1` ?
52.7

Please look up its cell viability: `COc1ccc(Nc2nccc(NCCO)n2)cc1`
74.7

// query cell viability value for entry `N[S+](=O)([O-])c1cccc2c1C(=O)c1cccc(O)c1C2=O`
33.3

So what's the measured cell viability for this one? `COc1ncnc(N[S+](=O)([O-])c2ccc(N)cc2)c1OC`
50.4

Recorded cell viability of `C[C@@H](NC(=O)c1ncnc(N)c1Cl)c1ncc(C(=O)Nc2cc(C(F)(F)F)c(Cl)cn2)s1` , please.
137

Suppose we examine the compound `CN[C@@H](C)C(=O)N[C@H]1CN(C(=O)CC(C)C)CC[C@H]2CC[C@@H](C(=O)NC(c3ccccc3)c3ccccc3)N2C1=O` ; what cell viability value has been reported?
95.1

Could you tell me which cell viability is on file for `CN1\N=C(N)/C2=C[N]([C@@H]3O[C@H](CO[P](O)(O)=O)[C@@H](O)[C@H]3O)C4=C2C1=NC=N4` ?
6.58
